- test.target: bovine milk XO (Bos taurus, UniProt P80457)
- Construct: The bovine milk XO activity was assayed; from tissue; host or cells: bovine milk
- Sequence (P80457 whole entry): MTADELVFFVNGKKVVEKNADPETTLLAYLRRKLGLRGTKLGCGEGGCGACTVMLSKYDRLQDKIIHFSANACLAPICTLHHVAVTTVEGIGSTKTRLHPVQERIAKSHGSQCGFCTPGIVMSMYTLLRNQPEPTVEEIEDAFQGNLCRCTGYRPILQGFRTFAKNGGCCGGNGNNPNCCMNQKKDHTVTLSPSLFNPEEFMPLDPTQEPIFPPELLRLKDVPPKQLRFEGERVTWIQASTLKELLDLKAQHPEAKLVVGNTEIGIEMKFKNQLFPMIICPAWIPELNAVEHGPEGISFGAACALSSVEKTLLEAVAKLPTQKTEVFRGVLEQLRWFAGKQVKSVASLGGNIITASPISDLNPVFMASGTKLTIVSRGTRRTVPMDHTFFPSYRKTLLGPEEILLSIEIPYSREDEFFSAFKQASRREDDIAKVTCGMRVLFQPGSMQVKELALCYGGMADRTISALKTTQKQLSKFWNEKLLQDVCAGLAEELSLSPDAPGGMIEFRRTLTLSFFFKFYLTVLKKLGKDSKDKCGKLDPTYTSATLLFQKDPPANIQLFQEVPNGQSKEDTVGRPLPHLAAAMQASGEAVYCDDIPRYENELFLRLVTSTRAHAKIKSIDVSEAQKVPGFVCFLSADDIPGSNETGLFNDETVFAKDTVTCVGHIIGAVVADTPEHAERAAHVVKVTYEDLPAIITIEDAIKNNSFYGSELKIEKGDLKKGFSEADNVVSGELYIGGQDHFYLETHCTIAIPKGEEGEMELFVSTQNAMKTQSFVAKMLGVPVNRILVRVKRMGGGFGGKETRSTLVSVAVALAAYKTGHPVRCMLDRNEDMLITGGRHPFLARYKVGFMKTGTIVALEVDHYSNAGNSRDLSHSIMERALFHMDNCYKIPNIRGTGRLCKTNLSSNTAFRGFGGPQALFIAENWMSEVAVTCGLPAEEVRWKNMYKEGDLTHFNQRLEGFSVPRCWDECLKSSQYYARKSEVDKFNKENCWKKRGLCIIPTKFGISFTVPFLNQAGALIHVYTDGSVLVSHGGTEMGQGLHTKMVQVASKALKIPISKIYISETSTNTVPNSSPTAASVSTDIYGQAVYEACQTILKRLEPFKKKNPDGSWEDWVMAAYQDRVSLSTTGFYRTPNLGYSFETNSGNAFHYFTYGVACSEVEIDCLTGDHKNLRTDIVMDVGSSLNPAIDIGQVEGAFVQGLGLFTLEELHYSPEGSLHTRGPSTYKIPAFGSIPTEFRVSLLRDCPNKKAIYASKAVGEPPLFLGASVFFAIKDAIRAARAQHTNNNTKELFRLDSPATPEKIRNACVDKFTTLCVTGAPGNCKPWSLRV
- test.summary: XO inhibitory activity assay (uric acid formation from xanthine, absorbance at 295 nm)
- Type: biochemical
- condition.set: sample concentration 25 µM for the compound; read-out: Xanthine Oxidase Inhibition %
- Method: The bovine milk XO activity was assayed following the previously published procedures. […] First, 125 µL of 100 mM sodium pyrophosphate buffer (HCl, pH 7.5), 30 µL of 0.1 units XO enzyme, 5 µL of test samples, and 40 µL of the substrate (0.5 mM xanthine) were mixed. […] The inhibition mechanism and constants (Km, Vmax, and Ki) of a binding site for the inhibitor to a free enzyme (KI) or an enzyme–substrate complex (KIS) were determined using the Lineweaver–Burk and Dixon plots. […]
quantity.name: inhibition at 25 µM (%)
Your answer should be a plain number; it is taken to be in %.

Entry COc1ccc(-c2cc(=O)c3c(O)cc(OC4OC(COC(=O)CC(=O)O)C(O)C(O)C4O)cc3o2)cc1 [Compound 4, Acacetin 7-O-(6-O-malonyl)-β-D-glucoside] , tested on bovine milk XO (Bos taurus, UniProt P80457), has a reported inhibition at 25 µM of 36.2

Entry O=C(/C=C/c1ccc(O)c2c1[C@H](C(=O)O[C@H](Cc1ccc(O)c(O)c1)C(=O)O)[C@@H](c1ccc(O)c(O)c1)O2)O[C@H](Cc1ccc(O)c(O)c1)C(=O)O [Compound 2, Salvianolic acid B] , tested on bovine milk XO (Bos taurus, UniProt P80457), has a reported inhibition at 25 µM of 46.1

Entry COc1ccc(-c2cc(=O)c3c(O)cc(O[C@@H]4O[C@H](CO)[C@@H](O)[C@H](O)[C@H]4O)cc3o2)cc1 [Compound 3, Tilianin] , tested on bovine milk XO (Bos taurus, UniProt P80457), has a reported inhibition at 25 µM of 49.3
